# maps each entry to its Percent Effect
# studySystem: Sialic acid-binding Ig-like lectin 9 (Homo sapiens)
# protocolDetails: Hs-Siglec9 ALPHAscreen SOP 20170721
# Design: scale not given: direction of the effect not stated beside the values
# recordedConditions: 10 µM
quantityMeasured: Percent Effect (%)

Cc1cc(C)n(C2CCCN(C(=O)c3ccc(F)cc3F)C2)n1 (stereo not given): 0.0778
Cc1cc(CN2CC[C@H]3C[C@H](C(=O)N4CCC(C)CC4)O[C@H]3C2)no1: -2.16
c1ccc(CN2CCc3ncnc(-c4ccsc4)c3CC2)nc1: 8.34
Cc1ccc2c(c1)CN(C(=O)c1ccccc1F)C(CN(C)C)CO2 (stereo not given): -7.4
O=C(NCCOc1ccc2c(c1)CCC2)N1CCS(=O)(=O)CC1: -7.49

---

# studySystem: Sialic acid-binding Ig-like lectin 9 (Homo sapiens)
# protocolDetails: Hs-Siglec9 ALPHAscreen SOP 20170721
# Design: scale not given: direction of the effect not stated beside the values
# recordedConditions: 10 µM
# maps each entry to its Percent Effect
quantityMeasured: Percent Effect (%)

NC(=O)C1CN(C(=O)Nc2ccccc2-c2cccs2)CCO1 (centres undefined): 20.2
CCn1nc(-c2ccccc2F)ccc1=O: -3.3
O=C(C1=CCCCC1)N1CCC2(CC1)COC(COc1ccccn1)C2 (centres undefined): 2.76
Cc1nc(CN2CCOCC3(CCN(c4cccnc4)CC3)C2)cs1: -0.618
CC(C)c1ncc(S(C)(=O)=O)c(C2CCCNC2)n1 (centres undefined): 16.7
COCCN1CCN(Cc2noc(C3CC3)n2)CC1C (centres undefined): -13.4
CN(C)S(=O)(=O)N1CCC[C@]2(C[C@@H](Oc3ccccn3)CO2)C1: 5.42
Cc1nc(C)n(CC2CCCN(CCC(=O)N3CCCCC3)C2)n1 (centres undefined): -4.47
O=C([C@H]1C[C@H]2OCC[C@H]2N(C(=O)c2ccncc2)C1)N1CCCCO1: -0.495

---

# Tested on: Trypanosoma cruzi
# protocolDetails: Trypanosoma cruzi phosphomannomutase and mannose-1-phosphate guanylyltransferase assay
# Assay type: functional
# Parameters: scale not given: direction of the effect not stated beside the values
# recordedConditions: 10 µM
# maps each entry to its Percent Effect
quantityMeasured: Percent Effect (%)

CCOc1cc(/C=C/c2ncc(C(=O)O)s2)cc(Cl)c1OC: -7.28
CNS(=O)(=O)c1ccc(C(=O)NCCc2ccccn2)cc1: -0.28
COc1ccccc1C(=O)N1CC(Cc2nccc3ccn(C)c23)C1: 4.15
CCc1cccc(N2CCC(NC(=O)c3ccc(=O)[nH]n3)CC2)c1: -4.82
O=C(COc1ccccc1)N1CCC[C@]2(C[C@H](OCC3CC3)CO2)C1: -3.45
COCc1nc(CNC2CCSCC2)no1: 3.98
CCn1ccnc1CN1CCN(CCOc2cccc(C#N)c2)CC1: 5.64
CCCOc1cccc(CNC(=O)CN2CCN(C)CC2C)c1 (configuration not stated): 1.02
O=C1CCSCC(C(=O)N2CCN(C3CCCCC3)CC2)N1 (configuration not stated): 0.979
CC(Cn1cccn1)NC(=O)N1CCN(Cc2cccs2)CC1 (configuration not stated): 5.42
Cn1cc(C2COC3(CCN(C(=O)c4ccc(F)cc4)CC3)C2)cn1 (configuration not stated): -2.25
CN1CC(=O)N(c2ccsc2)CC12CCN(S(C)(=O)=O)C2 (configuration not stated): 6.84
Cn1cccc1-c1cc(C(=O)N2CC(c3cccnc3)C2)[nH]n1: -2.81
Cc1cc(CN(C)C(=O)NCC(C)N2CCc3ccccc32)no1 (configuration not stated): 1.31
COc1cccc(CN2CCOC(Cn3nc(C)cc3C)C2)c1 (configuration not stated): -4.88
CC(C)N(C)C(=O)C1=NOC2(CCN(C(=O)c3ccncc3)C2)C1 (configuration not stated): -1.79
CCOCC1CN(C)Cc2cnn(CC3CCCC3)c21 (configuration not stated): 7.14
